experiment: Cycloheximide Counterscreen for Small Molecule Inhibitors of Shiga Toxin; conditions: cell reporter, cycloheximide protein synthesis inhibition counterscreen; also: read at 38.3 µM for the half of the compounds with a filed dose
In all, about 300,000 compounds went through this assay and about 37,000 (12%) were called active. Rule as the data show it: active = max response mostly above about 13% (no sharp cut-off); inactive = mostly below about 14%. Shown is part of a subset that was picked to be rich in actives.
Classes used: active, inactive

>>> category("Cc1cc(OCCCCOc2ccc(C#N)cc2)ccc1[N+](=O)[O-]")
"inactive"
>>> category("N=c1c2c(-c3ccccc3)c(-c3ccccc3)n(Cc3ccccc3)c2ncn1CCCO")
"inactive"
>>> category("Cc1ccc(/C=N/NC(=O)c2sccc2OCc2ccc(F)cc2)cc1")
"active"
>>> category("O=C(Nc1cccc(-c2nc3ccccc3[nH]2)c1)c1ccc(C(=O)Nc2cccc(-c3nc4ccccc4[nH]3)c2)cc1")
"active"
>>> category("CC(C)OC(=O)CN1CCN(c2ccc(Cl)cc2)CC1")
"inactive"
>>> category("CCOC(=O)c1ccccc1CN1C(=O)c2ccccc2S1(=O)=O")
"inactive"
>>> category("O=C(Nc1ccc(F)cc1)C1CCCN(S(=O)(=O)c2ccc(-n3cnnn3)cc2)C1 (stereo unspecified)")
"inactive"
>>> category("Cc1ccc(-c2nc3ccccc3[nH]2)cc1NC(=O)c1sc2ccccc2c1Cl")
"inactive"
>>> category("CC(C)(C)c1ccc(C(=O)CSc2ncn[nH]2)cc1")
"active"
>>> category("Cc1ccc2cc(CCNC(=O)c3c(-c4ccccc4Cl)noc3C)c(=O)[nH]c2c1")
"inactive"
>>> category("O=C(O)c1ccccc1-c1ccccc1C(=O)Nc1ccccc1Br")
"inactive"
>>> category("CCOC(=O)C1=C(C(=O)OCC)C(C(=O)OCC)N(S(=O)(=O)C(F)(F)F)c2ccccc21 (stereo unspecified)")
"inactive"
>>> category("CCCNC(=O)c1ccc(N2CCC3(CC2)CC(c2ccc(Cl)cc2)=NO3)c([N+](=O)[O-])c1")
"inactive"
>>> category("O=[N+]([O-])c1ccccc1/C=C/CN1CCC(O)CC1")
"inactive"
>>> category("COCCNC(=O)COc1ccc(N(C)S(=O)(=O)c2ccc3ccccc3c2)cc1")
"inactive"
>>> category("CCOc1cc(/C=N/NC(=O)CN2CCCCC2)ccc1O")
"inactive"
>>> category("OCCCN1c2ccccc2Nc2nnc(-c3ccccc3)cc21")
"active"
>>> category("COC(=O)c1cccc([N+](=O)[O-])c1CS(=O)(=O)c1ccc(C)cc1")
"inactive"
>>> category("CCOC(=O)C1=C(c2ccccc2)NC(=O)NC1c1cc(OC)c(OC)cc1OC (stereo unspecified)")
"inactive"
>>> category("CCN(C(=O)CSc1ncn[nH]1)c1cccc2ccccc12")
"inactive"
>>> category("CC(C)Oc1ccc(/C=C(\\NC(=O)/C=C/c2ccco2)C(=O)NCCc2nc3ccccc3[nH]2)cc1")
"inactive"

====

assay: Cycloheximide Counterscreen for Small Molecule Inhibitors of Shiga Toxin; settings: cell reporter, cycloheximide protein synthesis inhibition counterscreen; also: read at 38.3 µM for the half of the compounds with a filed dose
In all, about 300,000 compounds went through this assay and about 37,000 (12%) were called active. Rule as the data show it: active = max response mostly above about 13% (no sharp cut-off); inactive = mostly below about 14%. The sample as a whole holds a higher share of actives than the screen did.
Outcome codes: 1 = active, 0 = inactive

>>> category("Cc1ccc(C)c(CSc2nc(-c3ccco3)nc3c2c(=O)n(C)c(=O)n3C)c1")
0
>>> category("NS(=O)(=O)c1ccc(CCNS(=O)(=O)c2cccc3cccnc23)cc1")
0
>>> category("O=C(NCC(=O)N1CCN(c2ncc(C(F)(F)F)cc2Cl)CC1)c1ccc(Br)o1")
0
>>> category("Cc1c(C(C)(C)O)[nH]c2ccc(C#N)cc12")
0
>>> category("COC(=O)C1C(=O)c2c([nH]c(C(=O)OCCSC)c2C)CC1C (stereo not given)")
1

====

test: Cycloheximide Counterscreen for Small Molecule Inhibitors of Shiga Toxin; details: cell reporter, cycloheximide protein synthesis inhibition counterscreen; also: read at 38.3 µM for the half of the compounds with a filed dose
The campaign covered roughly 300,000 compounds. About 37,000 (12%) were called active. No stated cut-off is given here; in the data, active means max response mostly above about 13% (no sharp cut-off); inactive means mostly below about 14%. Shown is part of a subset that was picked to be rich in actives.
Possible outcomes: active, inactive

>>> category("Cc1ccc(N2C(=O)C3CC3C2=O)cc1 (stereo not drawn)")
"inactive"
>>> category("COc1cc(CNCCN(C)C)ccc1OCc1c(F)cccc1Cl")
"inactive"
>>> category("COc1ccc(N=Nc2ccc(O)c(P(=O)(c3ccccc3)c3ccccc3)c2)cc1")
"inactive"
>>> category("COc1cc(NC(=S)NCCSc2ccc(C)cc2)cc(OC)c1")
"inactive"
>>> category("Cc1cccc(C(=O)Nc2nnc(Cc3c[nH]c4ccccc34)s2)c1")
"inactive"
>>> category("O=C(CCC(=O)n1ncc2ccccc21)NCc1ccccc1Cl")
"inactive"
>>> category("Cc1cccc(-c2c(NC(=O)c3ccco3)oc3ccc(Cl)cc3c2=O)c1")
"inactive"
>>> category("CCOc1ccc(N(CC)S(=O)(=O)c2cccc3nsnc23)cc1")
"inactive"
>>> category("Cc1ccc(S(=O)(=O)NCC(=O)N2CCN(c3ccccn3)CC2)cc1")
"inactive"
>>> category("CC1(C)Cc2ccccc2/C(=C/C(=O)c2ccccc2)N1")
"inactive"
>>> category("CN(Cc1ccccc1Cl)C(=O)C1CCC(=O)N(CCc2cccc(F)c2)C1 (stereo not drawn)")
"inactive"
>>> category("Cc1cccc(N=C2NN=C(c3c[nH]c4ccccc34)CS2)c1")
"active"
>>> category("CCNC(=S)NNC(=O)c1ccc2ncccc2c1")
"inactive"
>>> category("COc1ccc(/C=C(/NC(=O)c2ccco2)C(=O)Nc2ccc(C(C)=O)cc2)cc1")
"inactive"
>>> category("Cc1ccc2cc(/C=N/NC(=O)[C@@H]3CCCN3)c(Cl)nc2c1")
"inactive"
>>> category("CCOC(=O)c1ccc(NNC(C)=O)c([N+](=O)[O-])c1")
"inactive"
>>> category("N#Cc1ccc(/C=C2\\CCn3c2nc2cc(C(=O)O)ccc2c3=O)cc1")
"inactive"
>>> category("COC(=O)c1ccc(/C=C2/C(=O)Oc3ccccc32)cc1")
"inactive"
>>> category("COc1ccccc1C(=O)NNC(=O)CCN1C(=O)/C(=C\\c2ccccc2)SC1=S")
"inactive"
>>> category("O=C(O)c1ccc(N/N=C/c2ccc3ncccc3c2)cc1")
"active"
>>> category("COC(=O)CCSc1cc([N+](=O)[O-])cc2c1c(C1OCCS1)nn2-c1ccccc1 (stereo not drawn)")
"inactive"
>>> category("CCCCNc1ccc(C(=O)Nc2cccc(C)n2)cc1[N+](=O)[O-]")
"active"
>>> category("CC1C(=O)Nc2ccccc2N1C(=O)c1c(F)cccc1F (stereo not drawn)")
"inactive"

====

experiment: Cycloheximide Counterscreen for Small Molecule Inhibitors of Shiga Toxin; conditions: cell reporter, cycloheximide protein synthesis inhibition counterscreen; also: read at 38.3 µM for the half of the compounds with a filed dose
The whole screen tested about 300,000 compounds, of which about 37,000 (12%) were called active. Cut-off read from the data, not from the text of the source: active = max response mostly above about 13% (no sharp cut-off); inactive = mostly below about 14%. What follows is part of a selection rich in actives, with near analogues and random picks from the rest.
Labels: 1 (yes) = active, 0 (no) = inactive

>>> category("COc1cc(/C=C2\\CCCc3c2nc2ccccc2c3C(=O)O)cc(Cl)c1O")
"0 (no)"
>>> category("COc1ccc(NS(=O)(=O)c2cc(NC(=O)C3CCCCC3)ccc2N2CCOCC2)cc1")
"0 (no)"
>>> category("CNC(=O)COC(=O)c1cc(-c2ccc(OC)cc2)nc2ccccc12")
"0 (no)"
>>> category("O=C(NCCCN1CCOCC1)c1ccc(N2CCCC2)c([N+](=O)[O-])c1")
"0 (no)"
>>> category("CC1CCN(C(=O)CCNC(=O)c2ccccc2)CC1")
"1 (yes)"
>>> category("CC1CCN(C(=O)/C(=C\\c2ccccc2)NC(=O)c2ccccc2)CC1")
"0 (no)"
>>> category("COc1cc(-c2cc(C(=O)OCC(=O)Nc3ccc4c(c3)OCO4)c3ccccc3n2)cc(OC)c1OC")
"0 (no)"
>>> category("Cc1cc2oc(=O)cc(CN3CCN(Cc4ccccc4)CC3)c2cc1C")
"0 (no)"
>>> category("O=C(Nc1ccc(CN2CCOCC2)cc1)c1cc(Cl)ccc1Cl")
"0 (no)"
>>> category("CCCc1cc(=O)oc2c(C)c(OCC(=O)N3CCC(C(=O)O)CC3)ccc12")
"0 (no)"
>>> category("NC(=O)c1ccc(NC(=O)COC(=O)c2c3c(nc4ccccc24)/C(=C\\c2ccc4c(c2)OCO4)CCC3)cc1")
"1 (yes)"
>>> category("Cc1ccc(-c2nc3ccccc3[nH]c2=O)cc1")
"1 (yes)"
>>> category("CCOc1ccc(Nc2nc(Cl)nc(N3CCN(c4ccc(OC)cc4)CC3)n2)cc1")
"0 (no)"
>>> category("NS(=O)(=O)c1ccc(NC(=O)COC(=O)c2c3c(nc4ccccc24)/C(=C\\c2ccc4c(c2)OCO4)CCC3)cc1")
"1 (yes)"
>>> category("CCCc1cc(=O)oc2c(C)c(OCC(=O)Nc3ccccn3)ccc12")
"1 (yes)"
>>> category("O=C(Cc1nn[nH]n1)NCCC1=CCCCC1")
"0 (no)"
>>> category("CC1CCN(C(=O)/C(=C\\c2ccccc2F)NC(=O)c2ccccc2)CC1")
"0 (no)"
>>> category("CCc1ccc(-c2cc(C(=O)NN3CCN(C)CC3)c3ccccc3n2)cc1")
"1 (yes)"
>>> category("c1ccc(CSc2ncnc3c2sc2nc(N4CCOCC4)c4c(c23)CCCC4)cc1")
"0 (no)"
>>> category("O=C(COC(=O)c1c2c(nc3ccccc13)/C(=C\\c1cccs1)CCC2)Nc1ccccc1Cl")
"0 (no)"
>>> category("COc1cccc(CNS(=O)(=O)c2ccc3c(c2)CC(C)N3C(C)=O)c1 (stereo unspecified)")
"0 (no)"
